System: OVCAR-8 ovarian
PROTOCOL: NCI tumour cell line growth inhibition, 48 h
// values below are reported TGI

Exercise: Tell me measured TGI for Cc1ccc(NC(=O)COC(=O)c2cccc3c(=O)c4ccccc4[nH]c23)cc1 please.
Solution: > 100 µM

Exercise: Tell me measured TGI for Cn1c(=O)c2nc3nnc(C#N)c(N)n3c2n(C)c1=O please.
Solution: > 100 µM

Exercise: Tell me measured TGI for COc1cc(Nc2ncc3c(C)nc(-c4cccc(Oc5ccccc5)c4)n3n2)cc(OC)c1OC please.
Solution: > 25 µM

* * *

Test system: LOX IMVI melanoma
PROTOCOL: NCI tumour cell line growth inhibition, 48 h; in the data active = GI50 below about 0.43 µM; inactive = the rest
I would appreciate it if you answered using one of these outcomes: active, inactive

Look over these answered cases.
| COMPOUND | STUDY SYSTEM | CAT |
| --- | --- | --- |
| N#Cc1c(NC(=O)c2cccc3ccccc23)sc2c1CCCC2 | LOX IMVI melanoma | active |
| O=C(NCC(=O)N1CC[C@H](NC2CCC(O)(c3ccc(-c4ncccn4)cn3)CC2)C1)c1cccc(C(F)(F)F)c1 (stereo partly drawn) | LOX IMVI melanoma | inactive |

Let's switch to this compound now.
Exercise: Please state the recorded outcome for this compound: COc1cc(OC)c2cc(C(=O)O)c(=O)oc2c1
Solution: inactive

* * *

Test system: HL-60(TB) leukemia
PROTOCOL: NCI tumour cell line growth inhibition, 48 h; in the data active = GI50 below about 0.43 µM; inactive = the rest
I would appreciate it if you answered using one of these outcomes: active, inactive

| COMPOUND | CAT |
| --- | --- |
| O[C@@H]1CCCN1Cc1cc2cc3c(cc2c2cc(OCc4ccccc4)ccc12)OCO3 | inactive |
| COC(=O)c1cc2c3ccccc3n3c(=O)c4cc5cc(OC)c(N(S(=O)(=O)c6ccc(C)cc6)S(=O)(=O)c6ccc(C)cc6)cc5nc4c(n1)c23 | inactive |
| Cc1cc(O)ccc1O | inactive |
| O=C(CC(O)c1ccncc1)c1ccccc1 (stereo unspecified) | inactive |
| O=C(N/N=c1/ccoc2cccnc12)N1CCN(c2ncccn2)CC1 | active |

Let's switch to this compound now.
Exercise: Please state the recorded outcome for this compound: c1ccc2c(-c3nc4ccccc4[nH]3)cccc2c1
Solution: inactive

* * *

System: BT-549 breast
PROTOCOL: NCI tumour cell line growth inhibition, 48 h
// values below are reported TGI

Exercise: Tell me measured TGI for OCCCCn1cc(Cn2ncc3c(SCc4ccccc4)ncnc32)nn1 please.
Solution: > 100 µM

Exercise: Tell me measured TGI for C[C@@H]1OC(=O)C[C@H]2CC(=O)N(CCC3CN(S(=O)(=O)C(F)(F)F)c4ccc(Cc5ccc6c(c5)C(CCN5C[C@H]7[C@@H](CC(=O)O[C@H]7C)CC5=O)CN6S(=O)(=O)C(F)(F)F)cc43)C[C@@H]21 (some centres not stated) please.
Solution: > 100 µM

Exercise: Tell me measured TGI for COc1cc(C=Nc2ccc(S(N)(=O)=O)cc2)cc(OC)c1 please.
Solution: > 50 µM

* * *

Test system: K-562 leukemia
PROTOCOL: NCI tumour cell line growth inhibition, 48 h; in the data active = GI50 below about 0.43 µM; inactive = the rest
I would appreciate it if you answered using one of these outcomes: active, inactive

| MOLECULE | STUDY SYSTEM | CAT |
| --- | --- | --- |
| N#Cc1c(NC(=O)c2cccc3ccccc23)sc2c1CCCC2 | K-562 leukemia | active |
| COc1cc(Nc2ncc3c(C)nc(-c4cccc(Oc5ccccc5)c4)n3n2)cc(OC)c1OC | K-562 leukemia | inactive |
| Nc1nc(Cl)c(N=Nc2ccc(Cl)cc2)c(NCC2(CO)CC(OCc3ccccc3)C2)n1 (centres undefined) | K-562 leukemia | inactive |

Exercise: Please state the recorded outcome for this molecule: O=C(N1CCC(CN=c2cc3n(-c4ccc(Cl)cc4)c4ccccc4nc-3cc2Nc2ccc(Cl)cc2)CC1)N1CC1
Solution: active

* * *

Tested on: SW-620 colon
PROTOCOL: NCI tumour cell line growth inhibition, 48 h
MEASURED METRIC: TGI

Check out these entries, answers already filled in.
| COMPOUND | MEASURED VALUE |
| --- | --- |
| Clc1ccc2c(c1)CC1C[N+]3=C(CCCC3)C1=C2 (centres undefined) | > 100 µM |
| O=c1oc2cc(O)ccc2cc1-c1nc2ccccc2s1 | 44 µM |
| NC(N)=NS(=O)(=O)c1ccc(Nc2c3ccccc3nc3c(C(=O)NC(CO)(CO)CO)cccc23)cc1 | > 100 µM |

Exercise: Tell me measured TGI for O=c1oc2ccc(F)cc2c(=O)n1-c1ccc(Cl)cc1F please.
Solution: 21.2 µM

Exercise: Tell me measured TGI for O=C1Cc2ccccc2N1c1c(Cl)cccc1Cl please.
Solution: > 100 µM

Exercise: Tell me measured TGI for O=C(O)/C=C/c1cnc[nH]1 please.
Solution: > 500 µM

Exercise: Tell me measured TGI for CC(=O)N1CC[N+](C)(CCCCN2c3ccccc3Sc3cc(N=[N+]=[N-])ccc32)CC1 please.
Solution: > 100 µM

Exercise: Tell me measured TGI for CCOC(=O)C1(C(=O)OCC)CSC1 please.
Solution: > 100 µM

Exercise: Tell me measured TGI for c1ccc(SC(Sc2ccccc2)c2ccc3c(c2)OCO3)cc1 please.
Solution: > 100 µM

Exercise: Tell me measured TGI for CN(C)CCCNC(=O)c1cc(NC(=O)c2cc(NC(=O)[C@H]3C[C@@H]3C(=O)Nc3cc(C(=O)Nc4cc(C(=O)NCCCN(C)C)n(C)c4)n(C)c3)cn2C)cn1C please.
Solution: > 100 µM

Exercise: Tell me measured TGI for COc1ccc(/C(=N\O)c2cc(OC)c(OC)c(OC)c2)c(OC)c1N please.
Solution: > 100 µM

* * *

// values below are reported TGI
Tested on: RPMI-8226 leukemia
PROTOCOL: NCI tumour cell line growth inhibition, 48 h
Quick reminder: number only, in µM, skip the unit.

Check out these entries, answers already filled in.
| COMPOUND | STUDY SYSTEM | TGI (µM) |
| --- | --- | --- |
| Cc1cc(C)nc(NS(=O)(=O)c2ccc(NNC(=O)c3cccc4c(NNc5ccc(S(=O)(=O)Nc6nc(C)cc(C)n6)cc5)c5ccccc5nc34)cc2)n1 | RPMI-8226 leukemia | 64.9 |
| COc1cc(C2CC(c3ccc(Nc4ccnc5cc(Cl)ccc45)cc3)=NN2C=O)cc(OC)c1OC (stereo unspecified) | RPMI-8226 leukemia | 8.63 |

// switching to the query compound
Exercise: Tell me measured TGI for COC(=O)c1c(C)cc2c(c1O)C1(O)C(=O)c3cc4c(c(O)c3C(=O)C1(OC)C(O)C2)C(=O)C=C(NC1OC(C)C(OC)C(O)C1OC)C4=O (stereo unspecified) please.
Solution: 0.303

* * *

// values below are reported TGI
Test system: CCRF-CEM leukemia
PROTOCOL: NCI tumour cell line growth inhibition, 48 h

Check out these entries, answers already filled in.
| MOLECULE | TGI |
| --- | --- |
| COc1ccc(N(C)c2nc(Cl)nc3ccn(C)c23)cc1 | > 100 µM |
| O=C(N/N=C/C=C/c1ccc([N+](=O)[O-])o1)c1ccc(Br)s1 | > 100 µM |
| CC1C=CC(C)C2(O)C(=O)NC(O)C12 (stereo not drawn) | > 100 µM |

// switching to the query molecule
Exercise: // output TGI; input CC(=O)c1c(O)ccc2c(C)c(C(=O)O)oc12 ; system CCRF-CEM leukemia
Solution: > 100 µM

* * *

System: UACC-257 melanoma
PROTOCOL: NCI tumour cell line growth inhibition, 48 h
// values below are reported GI50

Check out these entries, answers already filled in.
| SMILES INPUT | STUDY SYSTEM | GI50 |
| --- | --- | --- |
| COc1cc(/C=C/C(=O)C(C(=O)/C=C/c2ccc(OC(=O)CCNc3nnc(C)s3)c(OC)c2)C(=O)CCNc2nnc(C)s2)ccc1OC(=O)CCNc1nnc(C)s1 | UACC-257 melanoma | 2.64 µM |
| CCSc1nc(N2CCCCC2)c2cn[nH]c2n1 | UACC-257 melanoma | 58.7 µM |
| COc1cc(Nc2ncc3c(C)nc(-c4cccc(Oc5ccccc5)c4)n3n2)cc(OC)c1OC | UACC-257 melanoma | 10.4 µM |
| COc1cc(-n2cc(-c3ccc(F)cc3)[nH]c2=S)cc(OC)c1OC | UACC-257 melanoma | > 100 µM |
| O=c1oc2ccc(F)cc2c(=O)n1-c1ccc(Cl)cc1F | UACC-257 melanoma | 0.66 µM |
| COC(=O)c1oc2c(O)c(OC)c(Br)cc2c1C | UACC-257 melanoma | 24.5 µM |

Exercise: Tell me measured GI50 for CCN(CC)CCCNc1nc2ccccc2c2c(=O)c3cc(Cl)ccc3sc12 please.
Solution: 5.43 µM

Exercise: Tell me measured GI50 for O=C1/C(=C/c2ccc(Cl)cc2)CN(Cc2cn(CCNc3ccnc4cc(Cl)ccc34)nn2)C/C1=C\c1ccc(Cl)cc1 please.
Solution: 1.59 µM

Exercise: Tell me measured GI50 for O=C(N/N=c1/ccoc2cccnc12)N1CCN(c2ncccn2)CC1 please.
Solution: 0.0387 µM

Exercise: Tell me measured GI50 for COc1ccc(Cn2cc3c(c2-c2ccc(O)cc2)CCc2cnoc2-3)cc1 please.
Solution: 13.7 µM
